- tested-on: purified human recombinant GK (Homo sapiens (Human), UniProt P35557)
- Sequence (P35557 whole entry): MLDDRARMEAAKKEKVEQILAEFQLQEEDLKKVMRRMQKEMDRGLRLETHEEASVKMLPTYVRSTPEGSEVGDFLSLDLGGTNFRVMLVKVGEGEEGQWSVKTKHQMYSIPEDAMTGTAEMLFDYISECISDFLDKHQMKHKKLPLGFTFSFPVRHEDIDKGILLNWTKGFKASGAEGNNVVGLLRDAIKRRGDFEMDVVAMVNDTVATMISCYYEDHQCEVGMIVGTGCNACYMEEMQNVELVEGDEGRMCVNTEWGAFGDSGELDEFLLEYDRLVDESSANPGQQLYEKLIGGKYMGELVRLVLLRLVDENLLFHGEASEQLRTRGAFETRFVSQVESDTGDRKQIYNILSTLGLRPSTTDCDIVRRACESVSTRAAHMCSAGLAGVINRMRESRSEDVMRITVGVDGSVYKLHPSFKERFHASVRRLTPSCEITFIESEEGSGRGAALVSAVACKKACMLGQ
- protocol-summary: Glucokinase activity assay (coupled enzymatic, G6PD/NADH absorbance at 340 nm)
- settings: EC50 of % change in S0.5 of glucokinase for glucose, sigmoidal fit; read-out: EC50 (with respect to % ΔS0.5)
observable: EC50 (nM)

Reference set, count: 3
compound: O=C(Nc1ncc(C(O)CO)s1)C(Oc1ccc(F)cc1F)c1ccc(S(=O)(=O)C2CC2)cc1 (stereo not drawn) [Example E3]
readout-unit: nM
EC50: 1200
--
compound: O=C(O)c1ccc(Oc2cnc(NC(=O)C(OC3CCOCC3)c3ccc(S(=O)(=O)C4CC4)cc3)s2)cc1Cl (stereo not drawn) [Example B-20]
readout-unit: nM
EC50: 590
--
compound: O=C(O)c1cc(Oc2cnc(NC(=O)C(OC3CCOCC3)c3ccc(S(=O)(=O)C4CC4)cc3)s2)ccc1F (single isomer, unassigned; (+)) [Example G16A]
readout-unit: nM
EC50: 270

(A) Cc1cc(Oc2cnc(NC(=O)C(OC3CCOCC3)c3ccc(S(=O)(=O)C4CC4)cc3)s2)ccc1C(=O)O (single isomer, unassigned; (-)) [Example G1B]
(B) O=C(Nc1ncc(F)s1)C(OC1CCOCC1)c1ccc(S(=O)(=O)N2CCOCC2)cc1 (stereo not drawn) [Example A-11]
(C) O=C(O)c1ccc(NC(=O)C(Oc2ccc(F)cc2F)c2ccc(S(=O)(=O)C3CC3)cc2)nc1 (single isomer, unassigned; (-)) [Example G15A]
Hey, quick one: sort these by EC50, low to high? # output: labels, in the requested order A, C, B
(A: 330 nM, C: 480 nM, B: 950 nM)
